Values were extracted from the supplement of paper PMC13207355.

Tested on: E57 (patient-derived glioblastoma stem cells of mesenchymal subtype)
PROTOCOL_DETAILS: surviving fraction (nuclei count normalised to DMSO); higher = more cells surviving (less toxic)
CONDITION_PARAMETERS: 12.3 nM; exposure time: 72 h
Structures can show the parent of a compound that is named as a salt.
RECORDED_ENDPOINT: surviving fraction
The reply should be a number, written without any unit.

Check out these entries, answers already filled in.
COMPOUND	surviving fraction
CC1(C(=O)O)C2CCC(O2)C1(C)C(=O)O (stereo not drawn)	0.996
CN1[C@@H]2CC[C@H]1CC(OC(=O)c1c[nH]c3ccccc13)C2 (stereo partly drawn) [3-Tropanyl-indole-3-carboxylate hydrochloride]	0.959
Cc1ccc(NC(=O)c2ccc3c(c2)OCCO3)cc1NC(=O)c1ccc2nc(OCCN3CCCC3)ccc2c1	0.23
O=C(CCBr)N1CCN(C(=O)CCBr)CC1	1.02
Cc1cc(Nc2cc(N3CCN(C)CC3)nc(Sc3ccc(NC(=O)C4CC4)cc3)n2)n[nH]1	0.942
CC(=O)OC[C@H]1O[C@@H]([S-])[C@H](OC(C)=O)[C@@H](OC(C)=O)[C@@H]1OC(C)=O.CCP(CC)CC.[Au+]	0.96
CCCCCCCCCCCCCCCC[N+](C)(C)CCN(Cc1ccc(OC)cc1)c1ncccn1 [Thonzonium bromide]	1.04

Consider the additional compound presented here.
[Q] # query: surviving fraction | item COc1cc2c[n+](C)c3c4cc5c(cc4ccc3c2cc1OC)OCO5 [Nitidine chloride] | system: E57;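 further: nuclei counted by high-content imaging of Hoechst-stained cells in laminin-coated 384-well plates, relative to 0.1% DMSO vehicle wells, with staurosporine as cell-death control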
[A] 0.919
